Target: T1, mouse CD47 (mCD47) expressed on CHO cells (mouse, UniProt Q61735 19-303)
T1 construct: whole, on cells; also called CHO-mCD47
T1 sequence (looked up): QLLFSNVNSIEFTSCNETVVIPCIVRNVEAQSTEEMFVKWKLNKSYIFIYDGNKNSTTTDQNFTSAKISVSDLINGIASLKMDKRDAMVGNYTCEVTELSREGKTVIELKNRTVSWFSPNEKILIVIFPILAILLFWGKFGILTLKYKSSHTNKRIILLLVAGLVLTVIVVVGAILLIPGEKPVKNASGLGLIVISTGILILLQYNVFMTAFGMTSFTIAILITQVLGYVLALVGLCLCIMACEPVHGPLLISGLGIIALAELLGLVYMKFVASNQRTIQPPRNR
Experiment: flow cytometry, CHO-mCD47 cells (not shown)

binder	binding result
h20-VH2-VL5 (candidate 20.10) (antibody, human IgG4 S228P, kappa, V domains shown, hIgG4-S228P/kappa; also called h20-H2-L5) VH: QVQLVQSGAEVKKPGASVKVSCKASGYSFTDYYINWVRQAPGQGLEWMGRIYPGIGNTYYNKKFKGRVTITRDTSASTAYMELSSLRSEDTAVYYCARGHYGRGMDYWGQGTLVTVSS VL: DIVMTQSPDSLAVSLGERATINCKSSQSLLNSIDQKNYLAWYQQKPGQPPKLLIYFASTKESGVPDRFSGSGSGTDFTLTISGLQAEDVAVYFCQQHYSTPWTFGGGTKVEIRR	no binding
h20-VH2-VL3 (candidate 20.8) (antibody, human IgG4 S228P, kappa, V domains shown, hIgG4-S228P/kappa; also called h20-H2-L3) VH: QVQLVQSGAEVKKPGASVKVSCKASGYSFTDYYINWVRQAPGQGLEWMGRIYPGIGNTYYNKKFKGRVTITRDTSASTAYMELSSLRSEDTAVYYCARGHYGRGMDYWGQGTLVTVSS VL: EIVLTQSPDSLAVSLGERATINCKSSQSLLNSIDQKNYLAWYQQKAGQSPKLLIYFASTKESGVPDRFSGSGSGTDFTLTIDSLQAEDVAVYYCQQHYSTPWTFGGGTKVEIKR	no binding
h20-VH1-VL5 (candidate 20.5) (antibody, human IgG4 S228P, kappa, V domains shown, hIgG4-S228P/kappa; also called h20-H1-L5) VH: QVQLLESGAVLARPGTSVKISCKASGYSFTDYYINWVKQRPGQGLEWIGRIYPGIGNTYYNKKFKGRAKLTAATSASIAYLEFSSLTNEDSAVYYCARGHYGRGMDYWGQGTLVTVSS VL: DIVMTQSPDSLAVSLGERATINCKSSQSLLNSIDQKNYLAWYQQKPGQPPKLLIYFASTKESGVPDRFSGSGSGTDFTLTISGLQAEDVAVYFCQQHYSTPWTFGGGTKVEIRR	no binding
